# experimental_details: Tmax in balb/c mouse at 50 mg/kg, po
# Assay type: ADME, organism-based
# Design: dose 50 mg/kg, route oral
# assay_conditions: in vivo
measurement_type: Tmax (min)
Give bare numbers, in min.

Query block: Please report the recorded Tmax for C[C@]1(F)CCC[C@H]1Nc1c(C(N)=O)cnn2cccc12 .
Result block: 30

----------
# measured_on: Tyrosine-protein kinase JAK2 (Homo sapiens, UniProt O60674)
# Sequence (O60674 whole entry): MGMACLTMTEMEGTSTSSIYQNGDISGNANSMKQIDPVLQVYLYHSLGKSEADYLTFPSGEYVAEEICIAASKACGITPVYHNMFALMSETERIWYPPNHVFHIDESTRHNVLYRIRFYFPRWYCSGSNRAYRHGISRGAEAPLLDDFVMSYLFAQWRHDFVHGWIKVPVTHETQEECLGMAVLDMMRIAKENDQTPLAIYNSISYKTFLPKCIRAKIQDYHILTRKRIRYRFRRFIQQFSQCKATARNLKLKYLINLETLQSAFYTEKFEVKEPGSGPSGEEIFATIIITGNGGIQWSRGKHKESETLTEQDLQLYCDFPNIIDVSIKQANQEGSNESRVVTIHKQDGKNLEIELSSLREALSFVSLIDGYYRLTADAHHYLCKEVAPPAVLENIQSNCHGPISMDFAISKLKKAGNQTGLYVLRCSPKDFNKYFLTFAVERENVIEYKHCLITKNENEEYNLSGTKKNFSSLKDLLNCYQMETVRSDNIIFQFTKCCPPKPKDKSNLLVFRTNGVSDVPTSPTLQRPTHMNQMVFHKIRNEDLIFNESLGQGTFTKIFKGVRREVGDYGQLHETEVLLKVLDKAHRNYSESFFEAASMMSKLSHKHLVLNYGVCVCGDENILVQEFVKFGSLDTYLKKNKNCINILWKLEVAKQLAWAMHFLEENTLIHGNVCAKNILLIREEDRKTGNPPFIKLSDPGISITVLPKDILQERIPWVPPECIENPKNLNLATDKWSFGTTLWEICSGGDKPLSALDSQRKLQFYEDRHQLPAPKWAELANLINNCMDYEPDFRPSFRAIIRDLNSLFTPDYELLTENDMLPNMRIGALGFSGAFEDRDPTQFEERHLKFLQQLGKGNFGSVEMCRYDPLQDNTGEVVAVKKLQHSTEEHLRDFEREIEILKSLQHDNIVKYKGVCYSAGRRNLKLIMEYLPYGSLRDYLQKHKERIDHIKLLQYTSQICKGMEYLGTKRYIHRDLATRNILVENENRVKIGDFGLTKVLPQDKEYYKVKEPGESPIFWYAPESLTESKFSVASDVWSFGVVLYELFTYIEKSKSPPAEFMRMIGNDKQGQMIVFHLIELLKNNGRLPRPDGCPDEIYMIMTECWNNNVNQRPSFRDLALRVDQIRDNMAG
pIC50: −log10 of the molar value.
Binary classification by pIC50, with 7 as an inclusive lower bound for rule met; all other cases are rule not met.

Worked cases, answers included:
INSERT INTO results (molecule, classification) VALUES
  ('NC(=O)c1cnn2cccc2c1NC1CCCC1', 'rule not met'),
  ('CC1(C)[C@H](O)CC[C@H]1Nc1c(C(N)=O)cnn2cccc12 (racemic)', 'rule met'),
  ('C[C@H](Nc1c(C(N)=O)cnn2cccc12)C(C)(C)C', 'rule not met');

We next turn to a different molecule, shown below.
Query block: Decide: is the reported value of pIC50 for C[C@@H](Nc1c(C(N)=O)cnn2cccc12)C(C)(C)C equal to or greater than 7?
Result block: rule met

----------
# measured_on: Cytochrome P450 1A2 (Homo sapiens)
# Sequence (P05177 whole entry): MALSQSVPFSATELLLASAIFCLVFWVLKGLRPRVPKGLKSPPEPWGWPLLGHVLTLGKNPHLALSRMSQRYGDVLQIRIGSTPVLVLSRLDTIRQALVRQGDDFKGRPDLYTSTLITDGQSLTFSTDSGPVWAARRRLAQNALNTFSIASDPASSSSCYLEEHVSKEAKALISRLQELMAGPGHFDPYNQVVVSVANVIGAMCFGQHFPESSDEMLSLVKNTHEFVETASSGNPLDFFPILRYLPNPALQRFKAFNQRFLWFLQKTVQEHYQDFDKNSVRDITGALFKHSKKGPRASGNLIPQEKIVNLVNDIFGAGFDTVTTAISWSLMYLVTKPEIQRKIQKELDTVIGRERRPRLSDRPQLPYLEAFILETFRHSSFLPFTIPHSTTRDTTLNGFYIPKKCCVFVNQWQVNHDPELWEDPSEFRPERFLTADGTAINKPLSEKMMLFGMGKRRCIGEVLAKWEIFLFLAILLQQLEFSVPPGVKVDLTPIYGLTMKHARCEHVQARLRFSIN
# experimental_details: Inhibition of CYP1A2 (unknown origin)
# Type: ADME
pIC50: −log10 of the molar value.
measurement_type: pIC50

Query block: So what does the record say about pIC50 for C[C@]1(F)CCC[C@H]1Nc1c(C(N)=O)cnn2cccc12 ?
Result block: < 4.70

----------
Consider the following compounds; for each one, report its Papp.
# experimental_details: Permeability in human Caco2 cells
# Type: ADME, cell-based
# assay_conditions: Caco-2, read-out: permeability
One number for each entry, in ×10⁻⁶ cm/s.

INSERT INTO results (structure, uom, observed_measurement) VALUES
  ('C[C@]1(F)CCC[C@H]1Nc1c(C(N)=O)cnn2cccc12', '×10⁻⁶ cm/s', 25.6);

Please examine the following record next.
Query block: Which value of Papp has been reported for C[C@@H](Nc1c(C(N)=O)cnn2cccc12)C(C)(C)C in the records?
Result block: 19.2

----------
# experimental_details: Half life in balb/c mouse at 2 mg/kg, po
# Assay type: ADME, organism-based
# Set-up: dose 2 mg/kg, route oral
# assay_conditions: in vivo
measurement_type: half-life (min)
Answers are plain numbers, in min.

Query block: Could you share which half-life value was measured for C[C@]1(F)CCC[C@H]1Nc1c(C(N)=O)cnn2cccc12 ?
Result block: 84

----------
# experimental_details: Half life in balb/c mouse at 2 mg/kg, iv
# Format: ADME, organism-based
# Design: dose 2 mg/kg, route intravenous
# assay_conditions: in vivo
measurement_type: half-life (h)
Numbers only, in h.

Query block: What value of half-life has been recorded for this entry: C[C@]1(F)CCC[C@H]1Nc1c(C(N)=O)cnn2cccc12
Result block: 1.2

----------
# experimental_details: Clearance in balb/c mouse at 2 mg/kg, iv
# Format: ADME, organism-based
# Set-up: dose 2 mg/kg, route intravenous
# assay_conditions: in vivo
measurement_type: clearance (mL/min/kg)
Numbers only, in mL/min/kg.

Query block: Query: clearance; subject: C[C@]1(F)CCC[C@H]1Nc1c(C(N)=O)cnn2cccc12
Result block: 60

----------
# experimental_details: Cmax in balb/c mouse at 50 mg/kg, po
# Format: ADME, organism-based
# Design: dose 50 mg/kg, route oral
# assay_conditions: in vivo
measurement_type: Cmax

Query block: # input compound: C[C@]1(F)CCC[C@H]1Nc1c(C(N)=O)cnn2cccc12 ; wanted: its Cmax
Result block: 8.2 µM

----------
# experimental_details: Half life human liver microsomes
# Assay type: ADME
measurement_type: half-life (min)
Give bare numbers, in min.

Query block: Need half-life of C[C@]1(F)CCC[C@H]1Nc1c(C(N)=O)cnn2cccc12 , thanks.
Result block: 20

----------
# measured_on: UniProtKB P23458
# Sequence (P23458 whole entry): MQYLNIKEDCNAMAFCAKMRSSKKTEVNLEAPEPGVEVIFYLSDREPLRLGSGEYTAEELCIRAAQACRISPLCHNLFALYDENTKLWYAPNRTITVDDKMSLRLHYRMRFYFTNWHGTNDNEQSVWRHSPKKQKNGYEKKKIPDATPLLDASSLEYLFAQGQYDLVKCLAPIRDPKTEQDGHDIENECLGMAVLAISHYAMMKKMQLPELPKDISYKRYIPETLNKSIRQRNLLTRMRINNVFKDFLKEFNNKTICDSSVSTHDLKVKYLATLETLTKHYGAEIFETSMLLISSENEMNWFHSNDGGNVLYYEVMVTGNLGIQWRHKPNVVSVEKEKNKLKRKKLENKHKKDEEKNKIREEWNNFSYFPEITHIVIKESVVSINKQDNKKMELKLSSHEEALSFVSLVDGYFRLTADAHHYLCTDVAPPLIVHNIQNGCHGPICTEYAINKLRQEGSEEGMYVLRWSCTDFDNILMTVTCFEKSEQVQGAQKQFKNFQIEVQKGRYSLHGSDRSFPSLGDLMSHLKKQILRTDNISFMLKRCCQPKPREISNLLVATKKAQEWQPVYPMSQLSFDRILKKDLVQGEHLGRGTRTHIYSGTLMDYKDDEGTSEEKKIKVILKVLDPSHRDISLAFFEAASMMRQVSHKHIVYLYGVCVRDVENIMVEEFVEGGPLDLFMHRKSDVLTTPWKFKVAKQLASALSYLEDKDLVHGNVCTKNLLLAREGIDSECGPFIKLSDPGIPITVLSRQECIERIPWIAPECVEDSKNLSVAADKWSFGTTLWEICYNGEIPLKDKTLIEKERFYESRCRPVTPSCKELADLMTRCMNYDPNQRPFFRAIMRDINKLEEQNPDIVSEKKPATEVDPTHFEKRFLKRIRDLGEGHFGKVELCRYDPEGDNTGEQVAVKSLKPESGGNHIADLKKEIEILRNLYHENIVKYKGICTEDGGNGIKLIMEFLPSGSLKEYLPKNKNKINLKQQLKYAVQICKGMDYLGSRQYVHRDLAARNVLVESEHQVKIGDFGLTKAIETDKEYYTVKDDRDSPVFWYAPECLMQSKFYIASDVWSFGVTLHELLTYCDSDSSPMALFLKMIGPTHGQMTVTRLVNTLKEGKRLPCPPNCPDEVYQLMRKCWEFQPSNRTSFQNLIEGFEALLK
# experimental_details: Inhibition of JAK1 (unknown origin) bycaliper assay
measurement_type: pIC50
Give bare numbers, as −log10 of the molar value.

Known results for compounds:
INSERT INTO measurements (compound, measured_on, observed_measurement) VALUES
  ('C[C@@]1(O)CCC[C@H]1Nc1c(C(N)=O)cnn2cccc12 (racemic)', 'UniProtKB P23458', 6.57),
  ('CC1(C)[C@@H](N)CC[C@H]1Nc1c(C(N)=O)cnn2cccc12 (racemic)', 'UniProtKB P23458', 7.47),
  ('C[C@@]1(F)CCC[C@H]1Nc1c(C(N)=O)cnn2cccc12 (racemic)', 'UniProtKB P23458', 7.00),
  ('C[C@@]1(C#N)CCC[C@H]1Nc1c(C(N)=O)cnn2cccc12 (racemic)', 'UniProtKB P23458', 7.21);

For every listed record, write down its pIC50.
1. C[C@]1(O)CCC[C@H]1Nc1c(C(N)=O)cnn2cccc12 (racemic)
2. C[C@H](Nc1c(C(N)=O)cnn2cccc12)C(C)(C)C
3. C[C@]1(C#N)CCC[C@H]1Nc1c(C(N)=O)cnn2cccc12 (racemic)
4. C[C@@]1(CO)CCC[C@H]1Nc1c(C(N)=O)cnn2cccc12 (racemic)

Result block:
1. 6.96
2. 6.57
3. 7.82
4. 6.60

----------
# experimental_details: Half life mouse liver microsomes
# Type: ADME
measurement_type: half-life (min)
Numbers only, in min.

Query block: Endpoint output: half-life of C[C@]1(F)CCC[C@H]1Nc1c(C(N)=O)cnn2cccc12 . Value?
Result block: 34

----------
# experimental_details: Cmax in balb/c mouse at 10 mg/kg, po
# Type: ADME, organism-based
# Set-up: dose 10 mg/kg, route oral
# assay_conditions: in vivo
measurement_type: Cmax (nM)
Answers are plain numbers, in nM.

Query block: Param item = C[C@]1(F)CCC[C@H]1Nc1c(C(N)=O)cnn2cccc12 ; retrieve measured Cmax.
Result block: 2600

----------
# experimental_details: Tmax in balb/c mouse at 2 mg/kg, po
# Assay type: ADME, organism-based
# Parameters: dose 2 mg/kg, route oral
# assay_conditions: in vivo
measurement_type: Tmax (min)
Numbers only, in min.

Query block: Which Tmax value is on record for C[C@]1(F)CCC[C@H]1Nc1c(C(N)=O)cnn2cccc12 ?
Result block: 30

----------
# experimental_details: Cmax in balb/c mouse at 2 mg/kg, po
# Format: ADME, organism-based
# Design: dose 2 mg/kg, route oral
# assay_conditions: in vivo
measurement_type: Cmax (nM)
One number for each entry, in nM.

Query block: Need Cmax, item C[C@]1(F)CCC[C@H]1Nc1c(C(N)=O)cnn2cccc12
Result block: 480

----------
What fraction unbound was measured for each of the following?
# experimental_details: Fraction unbound in human serum
# Assay type: ADME, cell-free
One number for each entry.

INSERT INTO measurements (molecule, measurement_type, observed_measurement) VALUES
  ('CC1(C)[C@H](Nc2c(C(N)=O)cnn3cccc23)CC[C@@]1(C)O (racemic)', 'fraction unbound', 0.16),
  ('CC1(C)[C@H](Nc2c(C(N)=O)cnn3cccc23)CC[C@@]1(C)N', 'fraction unbound', 0.52),
  ('CC1(C)CCC[C@H]1Nc1c(C(N)=O)cnn2cccc12', 'fraction unbound', 0.019),
  ('C[C@]1(C#N)CCC[C@H]1Nc1c(C(N)=O)cnn2cccc12 (racemic)', 'fraction unbound', 0.27),
  ('CC1(C)[C@@H](N)CC[C@H]1Nc1c(C(N)=O)cnn2cccc12 (racemic)', 'fraction unbound', 0.44),
  ('CC1(C)[C@H](O)CC[C@H]1Nc1c(C(N)=O)cnn2cccc12 (racemic)', 'fraction unbound', 0.17);

Query block: What does the data say about its fraction unbound? Entry: C[C@]1(F)CCC[C@H]1Nc1c(C(N)=O)cnn2cccc12
Result block: 0.11

----------
# experimental_details: Oral bioavailability in balb/c mouse at 50 mg/kg
# Assay type: ADME, organism-based
# assay_conditions: in vivo
measurement_type: bioavailability (%)
Numbers only, in %.

Query block: Entry C[C@]1(F)CCC[C@H]1Nc1c(C(N)=O)cnn2cccc12 : reported bioavailability = ?
Result block: 46
